- target_of_assay: HLA-B*5301 (human)
- procedure_details: competition with 125I-labeled standard peptide for purified HLA, gel filtration
readout_name: binding affinity ratio (IC50 of standard peptide / IC50 of test peptide)
In your answer, state the number alone without any accompanying words.

# binder, measured_value
measured = [
    ("WPYLHNRLVV (modifications not checked)", 0.0002),
    ("WPYLHNRLV (modifications not checked)", 0.0002),
    ("DPQERPRKL (modifications not checked) [HPV16 E6 11 …]", 0.0001),
]

Continue with the binder presented below.
Q) Using the record for EPPKLRSTAA (modifications not checked) [HPV16 E1 308 …] , state its measured binding affinity ratio (IC50 of standard peptide / IC50 of test peptide).
A) 0.0002
